Origin of values: ChEMBL document CHEMBL1201862

Test system: HOP-92
Test: NCI tumour cell line growth inhibition, 48 h
Calls of active or inactive are those of the source. No stated cut-off is given here; in the data, active = GI50 up to about 1.1 µM and inactive = higher.
assay.metric: GI50

molecule	assay.target	assay.metric	meas.value
O=S(=O)(O)Nc1ccc(-c2nc3ccccc3s2)cc1Cl	HOP-92	GI50	> 100 µM (inactive)
O=C1[C@H]2ON(c3ccccc3)C(c3ccccc3)[C@H]2C(=O)N1c1ccc(Cc2ccc(N3C(=O)[C@@H]4ON(c5ccccc5)C(c5ccccc5)[C@@H]4C3=O)cc2)cc1 (stereo not given in full)	HOP-92	GI50	> 100 µM (inactive)
CCC[C@H](O)[C@@H](CNc1cc(NC(C)=O)nc(NC(C)=O)n1)N(Cc1ccccc1)Cc1ccccc1	HOP-92	GI50	34.4 µM (inactive)
CC(=O)NC1=C(C)C(=O)c2c(nc3n2CC[C@H]3OC(C)=O)C1=O	HOP-92	GI50	0.416 µM (active)
Cc1ccc(Nc2nc3c(s2)C(=O)c2ccccc2C3=O)cc1	HOP-92	GI50	2.86 µM (inactive)
CC1=NNC(=O)C1C1CC(c2c[nH]c3ccccc23)=NNC1=S (stereo not given)	HOP-92	GI50	> 100 µM (inactive)
O/N=C1\Nc2ccccc2OCc2cc(Br)c(Br)cc2COc2ccccc2N\C1=N/O	HOP-92	GI50	12.6 µM (inactive)
O=C1N(C2CCCCC2)C(=O)N1C1CCCCC1	HOP-92	GI50	0.149 µM (active)
CCCCS(=O)(=O)Nc1ccc(Nc2c3ccccc3nc3ccccc23)c(OC)c1	HOP-92	GI50	2.15 µM (inactive)
C/C=C/c1c(O)c(=O)c2c(OC)cc(OC)c3c4c(OC)cc(OC)c5c(=O)c(O)c(/C=C/C)c(c1c23)c54	HOP-92	GI50	14.4 µM (inactive)
